Assay: Quantitative High-Throughput drug screen in 47 multiple myeloma cell lines against the NCATS MIPE library collection: OCIMY1_PLB cell viability assay (AID 1918979); further: nearly all actives have a fitted effect of over 35% in size;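 on viability: 100% = DMSO-only wells and 0% = cell-free media-only wells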
Settings: OCI-MY1 myeloma viability, CellTiter-Glo ATP, 48 h; series mostly up to 45.8 µM
Description: PI: Beverly A. Mock Ph.D. Laboratory of Cancer Biology and Genetics, Center for Cancer Research, National Cancer Institute, National Institute of Health, Bethesda, Maryland […] 5; Detector; 425V; Luminescence; Viewlux PerkinElmer. […] 1. […] Briefly, the corresponding myeloma cell lines were screened in 1,536-well plates with 500 cells, 5-uL per well for inhibition of cell viability (assessed by measuring ATP levels with CellTiterGlo). […]
Records with an inconclusive call do not appear. Active and inactive are the calls of the source. The call rests on the fitted dose curve; in most records, active means well fitted cell-killing curve with a large enough effect; inconclusive means small, poorly fitted or top-dose-only effect, or effect the other way; inactive means no such curve, though single readings can be large or run the other way.
Just give me one of these, please: active, inactive

COMPOUND: Cc1ccc(C(=O)Nc2ccc(S(=O)(=O)O)c3cc(S(=O)(=O)O)cc(S(=O)(=O)O)c23)cc1NC(=O)c1cccc(NC(=O)Nc2cccc(C(=O)Nc3cc(C(=O)Nc4ccc(S(=O)(=O)O)c5cc(S(=O)(=O)O)cc(S(=O)(=O)O)c45)ccc3C)c2)c1
CLASS: inactive
//
COMPOUND: CCC1(c2ccccc2)C(=O)NCNC1=O
CLASS: inactive
//
COMPOUND: CN1CCN(C2=Nc3cc(Cl)ccc3Nc3ccccc32)CC1
CLASS: inactive
//
COMPOUND: O=C(c1ccc(OCCN2CCCCC2)cc1)c1c(-c2ccc(O)cc2)sc2cc(O)ccc12
CLASS: inactive
//
COMPOUND: C[C@](N)(Cc1ccc(O)c(O)c1)C(=O)O
CLASS: active
//
COMPOUND: Clc1ccc2c(c1)C(N1CCNCC1)=Nc1ccccc1O2
CLASS: inactive
//
COMPOUND: Nc1c2c(nc3ccccc13)CCCC2
CLASS: inactive
//
COMPOUND: CN1C2CCC1CC(OC(=O)C(CO)c1ccccc1)C2 (stereo unspecified)
CLASS: inactive

Dear colleague, could you share the recorded outcome for Clc1ccc2nsnc2c1NC1=NCCN1 when you have a moment?
inactive

Queued: Cc1cnc(C(=O)NCCc2ccc(S(=O)(=O)NC(=O)NC3CCCCC3)cc2)cn1
inactive

Queued: NS(=O)(=O)c1cc2c(cc1Cl)NCNS2(=O)=O
inactive

Queued: Cc1cn([C@H]2C=C[C@@H](CO)O2)c(=O)[nH]c1=O
inactive

Queued: Cn1cnc2c1c(=O)[nH]c(=O)n2C
active

Queued: CC1(CN2CCC(n3c(=O)[nH]c4ccccc43)CC2)OCc2ccccc2-n2cccc21 (stereo unspecified)
inactive

Queued: NCCCCCC(=O)O
inactive

Queued: CN(C)c1nc(N(C)C)nc(N(C)C)n1
inactive

* * *

System: PC26
Test: qHTS profiling for inhibitors of Plasmodium falciparum proliferation (AID 504749);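 further: 0% = DMSO vehicle and full inhibition = artemisinin control; nearly all actives have a fitted effect of over 60% in size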
Settings: P. falciparum in erythrocytes, SYBR Green DNA, 72 h; series mostly up to 28.7 µM
Results filed as inconclusive are left out. Active and inactive are the calls of the source. Calls follow the shape of the dose curve; as a rule, active = well fitted inhibition curve with a large enough effect; inconclusive = small, poorly fitted or top-dose-only effect; inactive = flat fitted curve, though single readings scatter.
Just give me one of these, please: active, inactive

Worked set:
MOLECULE: CN(Cc1cnc2nc(N)nc(N)c2n1)c1ccc(C(=O)N[C@@H](CCC(=O)O)C(=O)O)cc1
TARGET_DESC: PC26
CLASS: inactive
--
MOLECULE: CN1CCC(=C2c3ccccc3C=Cc3ccccc32)CC1
TARGET_DESC: PC26
CLASS: inactive

Dear colleague, could you share the recorded outcome for CC(C)(Oc1ccc(C2CC2(Cl)Cl)cc1)C(=O)O (centres undefined) when you have a moment?
inactive

* * *

Listed here: items and their measured Potency.
Assay: Quantitative High-Throughput drug screen in 47 multiple myeloma cell lines against the NCATS MIPE library collection: KMS28PE_JCRB cell viability assay (AID 1918983); further: potency means the concentration at half of the fitted maximal effect; nearly all actives have a fitted effect of over 35% in size
Settings: KMS28PE multiple myeloma viability, CellTiter-Glo ATP, 48 h; series mostly up to 45.8 µM
Records with an inconclusive call do not appear. Calls of active or inactive are those of the source. Calls follow the shape of the dose curve; as a rule, active = well fitted cell-killing curve with a large enough effect; inconclusive = small, poorly fitted or top-dose-only effect, or effect the other way; inactive = no such curve, though single readings can be large or run the other way.

COMPOUND_STRUCTURE_STRING: OCCN(CCO)c1nc(N2CCCCC2)c2nc(N(CCO)CCO)nc(N3CCCCC3)c2n1
TEST_VALUE: 20.9 µM (active)
//
COMPOUND_STRUCTURE_STRING: CS(=O)(=O)Nc1ccc([N+](=O)[O-])cc1Oc1ccccc1
TEST_VALUE: 0.187 µM (active)

Here is another compound to look at.
# lookup: Potency of O=C1c2c(O)ccc(O)c2C(=O)c2c(NCCNCCO)ccc(NCCNCCO)c21
0.935 µM (active)

* * *

Experiment: qHTS for differential inhibitors of proliferation of Plasmodium falciparum line HB3 (AID 1886);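 further: parasites grown with compound for 72 h before SYBR Green readout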
Conditions: Plasmodium falciparum HB3 proliferation inhibition; series mostly up to 28.7 µM
Results filed as inconclusive are left out. The source made the active and inactive calls. Calls follow the shape of the dose curve; as a rule, active = well fitted curve in the direction sought with a large enough effect; inconclusive = small, poorly fitted or top-dose-only effect, or another doubt; inactive = no such curve, though single readings can be large or run the other way.
Just give me one of these, please: active, inactive

Worked set:
MOLECULE: CN(C)CCOC(c1ccccc1)c1ccccc1
CLASS: inactive
//
MOLECULE: Fc1ccc([C@@H]2CCNC[C@H]2COc2ccc3c(c2)OCO3)cc1
CLASS: active

Dear colleague, could you share the recorded outcome for Nc1ccn([C@H]2CC[C@@H](CO)O2)c(=O)n1 when you have a moment?
inactive

Queued: CCCNCC(O)COc1ccccc1C(=O)CCc1ccccc1 (stereo unspecified)
active

Queued: CN1C(C(=O)Nc2ccccn2)=C(O)c2ccccc2S1(=O)=O
inactive

* * *

Biological target: Cytochrome P450 2C9 (Homo sapiens) (UniProt P11712)
Sequence (P11712 whole entry, looked up): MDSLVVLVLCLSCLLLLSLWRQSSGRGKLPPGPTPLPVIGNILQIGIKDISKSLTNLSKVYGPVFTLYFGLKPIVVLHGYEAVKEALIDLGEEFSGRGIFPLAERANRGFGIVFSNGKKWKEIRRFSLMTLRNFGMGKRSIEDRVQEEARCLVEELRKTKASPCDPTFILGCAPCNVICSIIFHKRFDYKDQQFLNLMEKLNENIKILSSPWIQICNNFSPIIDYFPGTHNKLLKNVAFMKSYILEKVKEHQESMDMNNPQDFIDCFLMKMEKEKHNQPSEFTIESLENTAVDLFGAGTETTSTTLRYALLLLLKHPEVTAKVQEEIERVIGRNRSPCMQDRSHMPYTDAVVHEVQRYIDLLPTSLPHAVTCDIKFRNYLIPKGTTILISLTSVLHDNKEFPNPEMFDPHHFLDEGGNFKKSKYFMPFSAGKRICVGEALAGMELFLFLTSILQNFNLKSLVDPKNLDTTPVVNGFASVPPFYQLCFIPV
Assay: Cytochrome P450 family 2 subfamily C member 9 (CYP2C9) small molecule antagonists: luciferase biochemical (cell-free) qHTS assay (AID 1645842); further: nearly all actives have a fitted effect of over 55% in size
Conditions: P450-Glo CYP2C9 enzyme assay, luciferin luminescence; series mostly up to 57.4 µM
Inconclusive results are not listed. Calls of active or inactive are those of the source. The call rests on the fitted dose curve; in most records, active means well fitted inhibition curve with a large enough effect in the repeat runs; inconclusive means weak or mixed curves; inactive means no such curve, though single readings can be large or run the other way.
Just give me one of these, please: 1.0 (active), 0.0 (inactive)

COMPOUND: COc1cc2nc(N3CCN(C(=O)C4COc5ccccc5O4)CC3)nc(N)c2cc1OC (stereo not drawn)
CLASS: 0.0
//
COMPOUND: NCCCCCC(=O)O
CLASS: 0.0

Note: attention shifts to another entry.
Dear colleague, could you share the recorded outcome for COc1ccc2c(c1)c(CC(=O)O)c(C)n2C(=O)c1ccc(Cl)cc1 when you have a moment?
1.0

* * *

Experiment: qHTS Assay for Lipid Storage Modulators (AID 1519); further: on the % scale 0 is the no-effect control and ±100 the full control effect
Settings: Drosophila S3 cells, BODIPY lipid droplet/cell ratio, laser cytometry; at 57.5 µM (top of the series); cells loaded with oleic acid
Inconclusive results are not listed.
ASSAY_METRIC: activity change, negative = inhibition (%)
Entry rule: numbers only, all in %.

MOLECULE: CC(C)(Oc1ccc(C2CC2(Cl)Cl)cc1)C(=O)O (configuration not stated)
activity change, negative = inhibition, %: 1.98
--
MOLECULE: O=C(C1CCCCC1)N1CC(=O)N2CCc3ccccc3C2C1 (configuration not stated)
activity change, negative = inhibition, %: 2.76
--
MOLECULE: NC(=O)NO
activity change, negative = inhibition, %: 7.16

# lookup: activity change, negative = inhibition of NC(CO)C(=O)NNCc1ccc(O)c(O)c1O (configuration not stated)
13.3

Queued: CCOC(=O)c1ncn2c1CN(C)C(=O)c1cc(F)ccc1-2
-0.292

Queued: NC(=O)OCC(COC(N)=O)c1ccccc1
-4.42

Queued: Cc1cnc(C(=O)NCCc2ccc(S(=O)(=O)NC(=O)NC3CCCCC3)cc2)cn1
0.481

Queued: CN1CCC(=C2c3ccccc3C=Cc3ccccc32)CC1
0.516

Queued: COc1ccc2c(c1)c(CC(=O)O)c(C)n2C(=O)c1ccc(Cl)cc1
13.5

Queued: CC(C)NCC(O)COc1ccc(CCOCC2CC2)cc1 (configuration not stated)
-2.88

Queued: CC(COc1ccccc1)N(CCCl)Cc1ccccc1 (configuration not stated)
6.18

Queued: CN(Cc1cnc2nc(N)nc(N)c2n1)c1ccc(C(=O)N[C@@H](CCC(=O)O)C(=O)O)cc1
0.2

* * *

Assay: qHTS of pediatric cancer cell lines to identify multiple opportunities for drug repurposing: Primary screen for DAOY cells (AID 1347090); further: nearly all actives have a fitted effect of over 55% in size; further: potency means the concentration at half of the fitted maximal effect
Conditions: DAOY medulloblastoma viability, CellTiter-Glo luminescence, 48 h; series mostly up to 46 µM
Records with an inconclusive call do not appear. Activity calls are given as the source filed them. The call rests on the fitted dose curve; in most records, active means well fitted cell-killing curve with a large enough effect; inconclusive means small, poorly fitted or top-dose-only effect; inactive means flat fitted curve, though single readings scatter.
ASSAY_METRIC: Potency

MOLECULE: CC(=O)OCC(CCn1cnc2cnc(N)nc21)COC(C)=O
Potency: inactive
--
MOLECULE: CCOC(=O)c1ncn2c1CN(C)C(=O)c1cc(F)ccc1-2
Potency: inactive
--
MOLECULE: CS(=O)(=O)CCNCc1ccc(-c2ccc3ncnc(Nc4ccc(OCc5cccc(F)c5)c(Cl)c4)c3c2)o1
Potency: 235 nM (active)
--
MOLECULE: CC(C)Cc1ccc(C(C)C(=O)O)cc1 (stereo not drawn)
Potency: inactive
--
MOLECULE: COc1nc(C)nc(Cl)c1NC1=NCCN1
Potency: inactive
--
MOLECULE: Nc1nc2c(ncn2COC(CO)CO)c(=O)[nH]1
Potency: inactive
--
MOLECULE: O=C(CCCN1CCC(O)(c2ccc(Cl)cc2)CC1)c1ccc(F)cc1
Potency: inactive
--
MOLECULE: CN1CCN(C2=Nc3cc(Cl)ccc3Nc3ccccc32)CC1
Potency: inactive
--
MOLECULE: NS(=O)(=O)c1cc2c(cc1Cl)NCNS2(=O)=O
Potency: inactive
--
MOLECULE: NCCS(=O)(=O)O
Potency: inactive

# lookup: Potency of C[C@](N)(Cc1ccc(O)c(O)c1)C(=O)O
inactive

Queued: COc1ccc(CCN(C)CCCC(C#N)(c2ccc(OC)c(OC)c2)C(C)C)cc1OC (stereo not drawn)
inactive

Queued: C[C@H]1c2cccc(O)c2C(O)=C2C(=O)[C@]3(O)C(O)=C(C(N)=O)C(=O)[C@@H](N(C)C)[C@@H]3[C@@H](O)[C@@H]21
inactive

Queued: Clc1ccccc1C(c1ccccc1)(c1ccccc1)n1ccnc1
inactive

Queued: Cc1ccc(C(=O)Nc2ccc(S(=O)(=O)O)c3cc(S(=O)(=O)O)cc(S(=O)(=O)O)c23)cc1NC(=O)c1cccc(NC(=O)Nc2cccc(C(=O)Nc3cc(C(=O)Nc4ccc(S(=O)(=O)O)c5cc(S(=O)(=O)O)cc(S(=O)(=O)O)c45)ccc3C)c2)c1
inactive

Queued: Cn1c(=O)c2c(ncn2C)n(C)c1=O
inactive

Queued: CN(CCOc1ccc(NS(C)(=O)=O)cc1)CCc1ccc(NS(C)(=O)=O)cc1
inactive

Reference source: PubChem BioAssay (NCATS)
